Quantity kind: melting point

Cc1ccc(-c2ccc(C(=O)c3ccccc3)cc2)cc1 | 124 to 125 °C
CCCCCCCCCCC(O)C(O)CNCc1ccccc1 (configuration not stated) | 52.6 to 53 °C
N#Cc1cc(C(=O)N=C(N)N)cc(-n2cccc2)c1 | 198 to 200 °C
CN1C(=O)Cn2c1nc(C(=O)O)c(OCc1ccccc1)c2=O | 194 °C
CSc1nccc(C(C)=O)n1 | 35 °C
CCC(=O)C1=CC=C(OC)C(Cl)(Cl)C1 | 51 to 54 °C
CCOC(=O)c1cc2cc(C3=NNC(=O)CC3)ccc2[nH]1 | 235 to 237 °C
OC(Cn1cncn1)(c1ccc(Cl)cc1)C1(C2CC2)CC1 (configuration not stated) | 110 to 112 °C

-- ask Please look at this compound and report its melting point: Cc1c(F)ccc(C(=O)O)c1F
-- reply 168 to 170 °C

-- ask Please look at this compound and report its melting point: CCCCC12CCC3c4ccc(OC)cc4CCC3C1CCC2O (configuration not stated)
-- reply 123 to 125 °C

---

melting point: recorded values

Example entries begin here.
C=CCn1cc(C(O)(c2ccc3c(cnn3-c3ccc(F)cc3)c2)C(F)(F)F)c2ccn(C)c(=O)c21 (centres undefined) | 91 to 93 °C
Cc1ccc(C2COc3c(C)c(C)c(NC(=O)CC(C)(C)C)c(C)c32)nc1 (centres undefined) | 170 to 171 °C

-- ask Please look at this compound and report its melting point: CC1=N/C(=C\c2c[nH]c3ncccc23)C(=O)N1CCN1CCOCC1
-- reply 235 to 240 °C

-- ask Please look at this compound and report its melting point: CC(=O)Nc1nc(CCc2ccc(NC(=O)OC(C)(C)C)cc2)c(C(=O)NCc2ccccc2)s1
-- reply 184 to 185 °C

-- ask Please look at this compound and report its melting point: Nc1nc2c(s1)C(=O)CCC2
-- reply 259 to 262 °C

---

Quantity kind: melting point

Example entries begin here.
CCCCN(CC)c1nc(C)nc2c1C(C)(C)C(O)N2c1c(C)cc(C)cc1C (stereo not given) | 142 to 145 °C
CCOC(=O)c1ccccc1SN(C(=O)NC(=O)c1ccccc1Cl)c1ccc(Oc2ccc(C(F)(F)F)cc2Cl)cc1 | 98 to 100 °C
COC(=O)c1ccc(OCCON=C(C)c2ccc(C(C)(C)C)cc2)cc1O | 65.4 to 66.8 °C

-- ask Please look at this compound and report its melting point: CCCc1nc(C)n2nc(S)nc2c1Cc1ccc([N+](=O)[O-])cc1
-- reply 210 °C

-- ask Please look at this compound and report its melting point: O=C(CCCCCCn1ccc2ccc([N+](=O)[O-])cc21)NS(=O)(=O)c1ccccc1
-- reply 117 to 121 °C

---

Quantity kind: melting point

Example entries begin here.
CN1Cc2cccnc2C(N2CCN(C(=O)Cc3ccncc3)CC2)c2ccc(Cl)cc21 (configuration not stated) | 83 to 87 °C
CC(=O)c1c(C)oc(C)c1C(C)=O | 75 to 77 °C
CCCc1c(OCc2ccc(C=CC(=O)O)cc2)ccc(C(C)=O)c1O | 203 to 204 °C

-- ask Please look at this compound and report its melting point: O=C(c1ccccc1)c1ccc(OCCO)cc1
-- reply 82 °C

-- ask Please look at this compound and report its melting point: O=C1CCCCc2sccc2N1CCCCN1CCN(c2ncccn2)CC1
-- reply 108 to 112 °C

Value source: a melting point compilation (Tetko et al.; mined from patent text by program, amines drawn as free bases though some values may be those of a salt)
